Data provenance: patent US9522881B2

# collection of pIC50 values tested on SHP2 (Homo sapiens (Human))
Answers are plain numbers, as −log10 of the molar value.

COMPOUND	pIC50
Cn1c(-c2cccc(NC(=O)C(=O)Nc3cccc(Cl)c3)c2)c(I)c2cc(C(=O)O)c(O)cc21 [11a-11]	5.84

Would you be so kind as to report pIC50 for each listed record?
1. Cn1c(-c2cccc(NC(=O)C(=O)O)c2)c(I)c2cc(C(=O)O)c(O)cc21 [10a]
2. Cn1c(-c2cccc(NC(=O)C(=O)Nc3cccc(OC(F)(F)F)c3)c2)c(I)c2cc(C(=O)O)c(O)cc21 [11a-17]
3. Cn1c(-c2cccc(NC(=O)C(=O)Nc3ccc(-c4ccccc4)cc3)c2)c(I)c2cc(C(=O)O)c(O)cc21 [11a-2]
4. Cn1c(-c2cccc(NC(=O)C(=O)Nc3cccc(-c4ccsc4)c3)c2)c(I)c2cc(C(=O)O)c(O)cc21 [11a-26]
5. Cn1c(-c2cccc(NC(=O)C(=O)Nc3cccc(-c4ccccc4)c3)c2)c(I)c2cc(C(=O)O)c(O)cc21 [11a-5]
6. Cn1c(-c2cccc(NC(=O)C(=O)Nc3cccc(-c4ccc(C#N)cc4)c3)c2)c(I)c2cc(C(=O)O)c(O)cc21 [11a-25]
7. Cn1c(-c2cccc(NC(=O)C(=O)Nc3cccc(I)c3)c2)c(I)c2cc(C(=O)O)c(O)cc21 [11a-20]

*A*
[4.84, 5.62, 6.21, 6.20, 6.11, 6.38, 5.27]

###

# TARGET_OF_ASSAY: PTPγ (Homo sapiens (Human), UniProt P23470)
# Sequence (P23470 20-1445): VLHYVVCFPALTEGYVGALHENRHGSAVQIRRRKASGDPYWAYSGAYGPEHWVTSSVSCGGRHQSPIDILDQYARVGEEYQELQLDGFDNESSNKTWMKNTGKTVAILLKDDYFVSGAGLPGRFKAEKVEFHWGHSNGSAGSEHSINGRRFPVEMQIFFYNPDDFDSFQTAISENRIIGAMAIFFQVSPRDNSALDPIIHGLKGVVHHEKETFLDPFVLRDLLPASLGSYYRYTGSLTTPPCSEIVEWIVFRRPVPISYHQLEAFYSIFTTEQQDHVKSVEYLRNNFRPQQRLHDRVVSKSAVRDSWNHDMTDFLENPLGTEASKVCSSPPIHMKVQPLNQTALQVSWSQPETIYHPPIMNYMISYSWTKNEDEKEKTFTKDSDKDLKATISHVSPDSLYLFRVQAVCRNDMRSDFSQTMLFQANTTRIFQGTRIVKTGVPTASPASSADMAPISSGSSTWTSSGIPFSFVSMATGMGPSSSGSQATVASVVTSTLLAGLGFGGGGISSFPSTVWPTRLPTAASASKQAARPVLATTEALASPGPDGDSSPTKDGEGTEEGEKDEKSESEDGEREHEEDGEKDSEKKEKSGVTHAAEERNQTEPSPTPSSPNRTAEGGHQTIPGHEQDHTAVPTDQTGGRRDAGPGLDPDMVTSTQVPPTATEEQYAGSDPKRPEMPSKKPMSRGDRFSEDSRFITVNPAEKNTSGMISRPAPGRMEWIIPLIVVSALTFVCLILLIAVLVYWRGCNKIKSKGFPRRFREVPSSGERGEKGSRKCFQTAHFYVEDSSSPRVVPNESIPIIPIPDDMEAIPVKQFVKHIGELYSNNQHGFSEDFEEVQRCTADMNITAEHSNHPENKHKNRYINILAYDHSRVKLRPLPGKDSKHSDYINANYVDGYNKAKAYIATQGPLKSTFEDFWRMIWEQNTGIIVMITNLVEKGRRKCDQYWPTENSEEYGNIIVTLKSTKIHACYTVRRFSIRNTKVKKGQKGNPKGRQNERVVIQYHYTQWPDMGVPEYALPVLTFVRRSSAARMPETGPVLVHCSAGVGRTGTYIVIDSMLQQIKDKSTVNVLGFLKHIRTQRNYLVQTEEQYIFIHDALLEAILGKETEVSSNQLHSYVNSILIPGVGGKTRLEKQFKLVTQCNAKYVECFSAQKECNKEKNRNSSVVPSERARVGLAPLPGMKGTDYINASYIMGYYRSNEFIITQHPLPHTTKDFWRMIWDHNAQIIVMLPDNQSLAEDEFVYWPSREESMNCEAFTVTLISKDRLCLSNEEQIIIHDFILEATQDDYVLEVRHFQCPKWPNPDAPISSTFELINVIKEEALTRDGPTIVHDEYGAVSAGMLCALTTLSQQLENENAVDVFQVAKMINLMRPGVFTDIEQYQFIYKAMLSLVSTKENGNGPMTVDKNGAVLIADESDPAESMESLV
READOUT_TYPE: pIC50
Numbers only, as −log10 of the molar value.

*Q* Provide pIC50, system PTPγ (Homo sapiens (Human), UniProt P23470), entry Cn1c(-c2cccc(NC(=O)C(=O)Nc3ccc(-c4ccsc4)cc3)c2)c(I)c2cc(C(=O)O)c(O)cc21 [11a-1]
*A* 5.62

###

# TARGET_OF_ASSAY: VHZ (Homo sapiens (Human))
# Sequence (Q9BVJ7 whole entry, species assumed): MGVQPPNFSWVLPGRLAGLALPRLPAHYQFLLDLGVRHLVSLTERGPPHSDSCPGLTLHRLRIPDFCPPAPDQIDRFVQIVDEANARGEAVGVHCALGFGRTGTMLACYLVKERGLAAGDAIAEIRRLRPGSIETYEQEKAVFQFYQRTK
READOUT_TYPE: pIC50
Numbers only, as −log10 of the molar value.

*Q* Answer with the recorded pIC50 of Cn1c(-c2cccc(NC(=O)C(=O)Nc3ccc(-c4ccsc4)cc3)c2)c(I)c2cc(C(=O)O)c(O)cc21 [11a-1] only.
*A* 5.64

###

# collection of pIC50 values tested on SHP2 (Homo sapiens (Human))
Give bare numbers, as −log10 of the molar value.

Would you be so kind as to report pIC50 for each listed record?
1. Cn1c(-c2cccc(NC(=O)CCC(=O)Nc3cccc(-c4ccccc4)c3)c2)c(I)c2cc(C(=O)O)c(O)cc21 [11c-5]
2. Cn1c(-c2cccc(NC(=O)C(=O)Nc3ccc(-c4ccc(C#N)cc4)cc3)c2)c(I)c2cc(C(=O)O)c(O)cc21 [11a-21]
3. Cn1c(-c2cccc(NC(=O)CCC(=O)Nc3ccc(Oc4ccccc4)cc3)c2)c(I)c2cc(C(=O)O)c(O)cc21 [11c-2]
4. Cn1c(-c2cccc(NC(=O)C(=O)Nc3nnc(-c4ccccc4)s3)c2)c(I)c2cc(C(=O)O)c(O)cc21 [11a-14]

*A*
5.28
6.66
5.44
5.75

###

# TARGET_OF_ASSAY: SHP2 (Homo sapiens (Human), UniProt Q06124)
# Sequence (Q06124 whole entry, looked up): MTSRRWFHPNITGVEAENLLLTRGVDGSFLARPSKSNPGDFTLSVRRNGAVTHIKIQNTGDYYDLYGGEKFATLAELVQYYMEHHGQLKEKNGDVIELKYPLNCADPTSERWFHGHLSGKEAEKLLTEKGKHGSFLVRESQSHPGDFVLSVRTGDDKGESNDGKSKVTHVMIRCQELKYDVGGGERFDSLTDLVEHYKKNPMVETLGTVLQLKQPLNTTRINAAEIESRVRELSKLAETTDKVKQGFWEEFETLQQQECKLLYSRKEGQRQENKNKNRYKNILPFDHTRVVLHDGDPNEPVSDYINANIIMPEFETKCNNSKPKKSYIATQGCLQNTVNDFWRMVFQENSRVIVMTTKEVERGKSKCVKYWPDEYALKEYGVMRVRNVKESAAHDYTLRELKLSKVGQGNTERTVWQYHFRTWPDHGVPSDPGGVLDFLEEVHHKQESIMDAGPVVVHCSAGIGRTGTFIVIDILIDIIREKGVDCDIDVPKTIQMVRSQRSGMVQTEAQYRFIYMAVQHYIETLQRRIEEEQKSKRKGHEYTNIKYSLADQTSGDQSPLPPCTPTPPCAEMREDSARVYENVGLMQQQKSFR
pIC50: −log10 of the molar value.
Lab note: compare pIC50 against 5. Equal or greater, write fulfilled. Smaller, write not fulfilled.

Answered cases to consult:
MOLECULE	GROUP_LABEL
Cn1c(-c2cccc(NC(=O)CCC(=O)Nc3ccc(-c4ccsc4)cc3)c2)c(I)c2cc(C(=O)O)c(O)cc21 [11c-1]	fulfilled
Cn1c(-c2cccc(NC(=O)C(=O)Nc3cccc(F)c3)c2)c(I)c2cc(C(=O)O)c(O)cc21 [11a-19]	fulfilled
Cn1c(-c2cccc(NC(=O)CCC(=O)NCc3ccc4c(c3)OCO4)c2)c(I)c2cc(C(=O)O)c(O)cc21 [11c-9]	not fulfilled
Cn1c(-c2cccc(NC(=O)C(=O)Nc3cccc(OCc4ccccc4)c3)c2)c(I)c2cc(C(=O)O)c(O)cc21 [11a-6]	fulfilled
CCCN(CC1CC1)C(=O)CCC(=O)Nc1cccc(-c2c(I)c3cc(C(=O)O)c(O)cc3n2C)c1 [11c-10]	not fulfilled

# evaluate next
*Q* Quick check: does Cn1c(-c2cccc(NC(=O)C(=O)Nc3ccc(F)cc3)c2)c(I)c2cc(C(=O)O)c(O)cc21 [11a-15] have pIC50 greater than or equal to 5?
*A* fulfilled
